This listing pairs binders with measured OD (A492).
- measurement_target: bovine serum albumin (BSA) (bovine) (UniProt P02769)
- Sequence (P02769 25-607 limits assumed): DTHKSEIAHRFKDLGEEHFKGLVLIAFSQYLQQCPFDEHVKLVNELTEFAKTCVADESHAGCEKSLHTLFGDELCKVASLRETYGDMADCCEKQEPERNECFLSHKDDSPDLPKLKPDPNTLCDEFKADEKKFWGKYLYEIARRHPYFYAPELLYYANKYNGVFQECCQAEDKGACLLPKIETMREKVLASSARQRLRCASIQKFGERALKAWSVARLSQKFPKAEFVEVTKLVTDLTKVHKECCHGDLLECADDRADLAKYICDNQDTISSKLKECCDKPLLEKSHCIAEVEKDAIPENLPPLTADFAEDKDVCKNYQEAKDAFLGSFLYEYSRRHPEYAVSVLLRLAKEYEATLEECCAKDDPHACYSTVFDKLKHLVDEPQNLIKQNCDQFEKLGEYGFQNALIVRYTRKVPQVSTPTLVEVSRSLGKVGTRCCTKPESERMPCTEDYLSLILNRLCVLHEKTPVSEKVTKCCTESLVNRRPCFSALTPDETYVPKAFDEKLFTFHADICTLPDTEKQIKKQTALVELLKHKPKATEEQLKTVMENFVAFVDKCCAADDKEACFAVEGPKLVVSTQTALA
- assay_protocol: EIA, BSA background
Your reply should be a number followed by the unit it is expressed in.

Record excerpt, results attached:
HCV 208B-408 (antibody, V domains shown) VH: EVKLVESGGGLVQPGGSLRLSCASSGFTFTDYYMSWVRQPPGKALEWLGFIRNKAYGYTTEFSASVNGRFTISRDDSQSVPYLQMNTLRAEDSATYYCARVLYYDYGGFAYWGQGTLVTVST VL: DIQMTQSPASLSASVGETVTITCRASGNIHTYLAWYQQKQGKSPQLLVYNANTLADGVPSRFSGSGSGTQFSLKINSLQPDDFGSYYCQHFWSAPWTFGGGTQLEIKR; 0.1 OD
HCV 208B-822 (antibody, V domains shown) VH: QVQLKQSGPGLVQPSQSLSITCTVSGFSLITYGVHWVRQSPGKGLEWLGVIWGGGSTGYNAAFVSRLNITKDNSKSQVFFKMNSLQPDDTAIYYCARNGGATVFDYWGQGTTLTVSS VL: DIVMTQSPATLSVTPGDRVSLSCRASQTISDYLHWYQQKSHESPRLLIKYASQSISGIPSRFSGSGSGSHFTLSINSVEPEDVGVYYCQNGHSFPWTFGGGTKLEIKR; 0.11 OD
HCV 208B-517 (antibody, V domains shown) VH: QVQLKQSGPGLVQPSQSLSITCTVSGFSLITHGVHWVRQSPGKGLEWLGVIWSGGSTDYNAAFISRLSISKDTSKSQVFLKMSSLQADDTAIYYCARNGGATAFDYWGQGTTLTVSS VL: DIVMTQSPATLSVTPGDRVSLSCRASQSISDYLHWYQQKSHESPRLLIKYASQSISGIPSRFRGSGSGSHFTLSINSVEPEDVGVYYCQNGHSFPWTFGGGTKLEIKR; 0.12 OD
HCV 208A-692 (antibody, V domains shown) VH: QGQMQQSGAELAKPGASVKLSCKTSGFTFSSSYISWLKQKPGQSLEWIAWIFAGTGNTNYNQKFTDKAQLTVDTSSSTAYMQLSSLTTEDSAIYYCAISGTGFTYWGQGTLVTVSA VL: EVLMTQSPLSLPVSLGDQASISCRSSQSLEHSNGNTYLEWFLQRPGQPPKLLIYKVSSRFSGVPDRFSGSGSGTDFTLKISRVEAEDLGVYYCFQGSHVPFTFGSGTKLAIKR; 0.09 OD

From here, focus on the item given below.
Qu. Output OD (A492) of HCV 208B-178 (antibody, V domains shown) VH: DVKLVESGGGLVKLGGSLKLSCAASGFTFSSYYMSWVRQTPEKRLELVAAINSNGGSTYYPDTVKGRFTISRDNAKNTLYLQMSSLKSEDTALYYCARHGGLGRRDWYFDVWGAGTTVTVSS VL: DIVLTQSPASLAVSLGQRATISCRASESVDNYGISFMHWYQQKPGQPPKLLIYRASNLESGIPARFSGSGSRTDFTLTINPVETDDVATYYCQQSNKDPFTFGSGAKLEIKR
Ans. 0.08 OD
